Where do these numbers come from? They come from PubChem BioAssay (NCATS).

measurement_description: Quantitative High-Throughput drug screen in 47 multiple myeloma cell lines against the NCATS MIPE library collection: INA6_PLB cell viability assay (AID 1918965; further: nearly all actives have a fitted effect of over 55% in size)
condition_description: INA6 myeloma viability, CellTiter-Glo ATP luminescence, 48 h; series mostly up to 45.8 µM
Source text: PI: Beverly A. Mock Ph.D. Laboratory of Cancer Biology and Genetics, Center for Cancer Research, National Cancer Institute, National Institute of Health, Bethesda, Maryland […] 5; Detector; 425V; Luminescence; Viewlux PerkinElmer. […] 1. […] Briefly, the corresponding myeloma cell lines were screened in 1,536-well plates with 500 cells, 5-uL per well for inhibition of cell viability (assessed by measuring ATP levels with CellTiterGlo). […]
Results filed as inconclusive are left out. The source made the active and inactive calls. The call rests on the fitted dose curve; in most records, active means well fitted cell-killing curve with a large enough effect; inconclusive means small, poorly fitted or top-dose-only effect, or effect the other way; inactive means no such curve, though single readings can be large or run the other way.
I would appreciate it if you answered using one of these outcomes: active, inactive

COC[C@H]1OC(=O)c2coc3c2[C@@]1(C)C1=C(C3=O)C2CCC(=O)[C@@]2(C)C[C@H]1OC(C)=O (some centres undefined); active

**Query** What did the test return for C[C@@H]1O[C@@H](O[C@H]2C[C@@H](O)[C@]3(CO)[C@H]4[C@H](O)C[C@]5(C)[C@@H](C6=CC(=O)OC6)CC[C@]5(O)[C@@H]4CC[C@]3(O)C2)[C@H](O)[C@H](O)[C@H]1O ?
**Result** active

* * *

measurement_description: qHTS of pediatric cancer cell lines to identify multiple opportunities for drug repurposing: Primary screen for control Hh wild type fibroblast cells (AID 1347106); further: nearly all actives have a fitted effect of over 55% in size
condition_description: Hh wild-type fibroblast viability, CellTiter-Glo luminescence, 48 h; series mostly up to 46 µM
Records with an inconclusive call do not appear. The source made the active and inactive calls. Calls come from the whole dose curve; as a rule, active = well fitted cell-killing curve with a large enough effect; inconclusive = small, poorly fitted or top-dose-only effect; inactive = flat fitted curve, though single readings scatter.
I would appreciate it if you answered using one of these outcomes: active, inactive

Clc1ccc(CCC(Cn2ccnc2)Sc2c(Cl)cccc2Cl)cc1 (centres undefined); inactive
CCC(C(N)=O)N1CCCC1=O (centres undefined); inactive
Cc1ccc(S(=O)(=O)N[C@@H](CCCCN)C(=O)CCl)cc1; inactive
CCN(C(C)=O)c1cccc(-c2ccnc3c(C#N)cnn23)c1; inactive
C[C@@H]1O[C@@H](O[C@H]2C[C@@H](O)[C@]3(CO)[C@H]4[C@H](O)C[C@]5(C)[C@@H](C6=CC(=O)OC6)CC[C@]5(O)[C@@H]4CC[C@]3(O)C2)[C@H](O)[C@H](O)[C@H]1O; active
CCC1(C2=NCCN2)Cc2ccccc2O1 (centres undefined); inactive

**Query** What did the test return for CC(C)=CC1C(C(=O)OCc2cccc(Oc3ccccc3)c2)C1(C)C (centres undefined) ?
**Result** inactive

**Query** Let us now turn to NP(N)(=O)NC(=O)c1ccc(F)cc1
**Result** inactive

* * *

target_system: Arylsulfatase A (Homo sapiens) (UniProt P15289)
Sequence (P15289 whole entry, looked up): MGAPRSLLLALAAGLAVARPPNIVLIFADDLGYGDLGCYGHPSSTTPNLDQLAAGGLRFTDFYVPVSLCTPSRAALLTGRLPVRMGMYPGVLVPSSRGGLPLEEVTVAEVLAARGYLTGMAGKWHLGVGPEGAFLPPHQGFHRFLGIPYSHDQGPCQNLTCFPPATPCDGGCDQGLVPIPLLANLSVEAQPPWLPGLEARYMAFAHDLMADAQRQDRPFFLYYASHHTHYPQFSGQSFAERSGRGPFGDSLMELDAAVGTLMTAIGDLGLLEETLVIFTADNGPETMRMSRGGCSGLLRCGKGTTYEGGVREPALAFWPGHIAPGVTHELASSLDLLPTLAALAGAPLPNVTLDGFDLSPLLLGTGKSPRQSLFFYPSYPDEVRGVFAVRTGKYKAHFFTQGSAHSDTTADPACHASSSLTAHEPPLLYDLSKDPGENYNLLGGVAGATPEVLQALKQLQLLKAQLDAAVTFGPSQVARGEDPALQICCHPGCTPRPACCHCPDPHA
measurement_description: qHTS screen for enhancers of Arylsulfatase A (ASA1): LOPAC Validation Assay (AID 720538)
condition_description: ASA enzyme activity, LOPAC qHTS enhancer assay; series mostly up to 57.5 µM
Inconclusive results are not listed. Calls of active or inactive are those of the source. Calls follow the shape of the dose curve; as a rule, active = well fitted activation curve with a large enough effect; inconclusive = small, poorly fitted or top-dose-only effect; inactive = no such curve, though single readings can be large or run the other way.
quantity_kind: outcome

Below: 8 compounds and their reported outcome.
CNCC(O)c1ccc(O)cc1 (configuration not stated); inactive
CC[C@@H](CO)NC(=O)[C@@H]1C=C2c3cccc4c3c(cn4C)C[C@H]2N(C)C1; inactive
NCC(CC(=O)O)c1ccc(Cl)cc1 (configuration not stated); inactive
COC[C@H]1OC(=O)c2coc3c2[C@@]1(C)C1=C(C3=O)C2CCC(=O)[C@@]2(C)C[C@H]1OC(C)=O (some centres not stated); inactive
CCCC(C)(COC(N)=O)COC(=O)NC(C)C (configuration not stated); inactive
Cc1cccc(C)c1NC(=O)CN1CCCC1=O; inactive
CC(CCc1ccccc1)NC(C)C(O)c1ccc(O)cc1 (configuration not stated); inactive
CNCCC(Oc1ccc(C(F)(F)F)cc1)c1ccccc1 (configuration not stated); inactive

**Query** // returns reported outcome for input NCC1(CC(=O)O)CCCCC1
**Result** inactive

**Query** Let us now turn to N#CC(C#N)=Cc1ccc(O)c(O)c1
**Result** inactive

**Query** Let us now turn to CCCN1CCC[C@@H]2Cc3nc(N)ncc3C[C@H]21
**Result** inactive

**Query** Let us now turn to C[C@]12CCC(=O)C(O)=C1CC[C@@H]1[C@@H]2CC[C@]2(C)C(=O)CC[C@@H]12
**Result** inactive
